System: Torulopsis glabrata JHC-BC9951635
Test Name: In vitro study of inhibition of growth and lethality against yeast (MIC/MLC susceptibility test), isolate E
Assay type: cell-based
Condition Context: Nakaseomyces glabratus, JHCBC9951635, 48 h, Torulopsis glabrata, 2nd pair of lines, read at 48 hr; isolate assigned by line order; read-out: Minimum Inhibitory Conc. (MIC), 48 hr.
Value Type: MIC (µg/mL)

| Compound | Result Operator | Result Number |
| --- | --- | --- |
| Cc1[nH]c2ccccc2c1/C=C/C1=[N+](C)c2ccccc2C1(C)C.[Cl-] [Compound 1400] | > | 32 |
| C[N+](C)(C)C(Cc1ccccc1)C(=O)OCCCCCCCCOc1ccc(OCc2ccccc2)cc1.[I-] (stereo not drawn) [Compound 1230] | = | 2 |
| COC(=O)c1cc2cc(OCc3ccccc3)ccc2n1CCCCCCCOC(=O)c1ccc(CN(C)C)cc1 [Compound 1096] | > | 32 |
| C[N+](C)(C)c1ccc(CC(=O)OCCCCCCCCOc2ccc(OCc3ccccc3)cc2)cc1.[I-] [Compound 1094] | = | 1 |
| C[N+](C)(C)C(CCc1ccccc1)C(=O)OCCCCCCCCOc1ccc(OCc2ccccc2)cc1.[I-] (stereo not drawn) [Compound 1260] | = | 2 |
| C[N+](C)(C)c1ccc(CCCC(=O)OCCCCCCCCOc2ccc(OCc3ccccc3)cc2)cc1.[I-] [Compound 1200] | = | 1 |
| COC(=O)c1cc2cc(OCc3ccccc3)ccc2n1CCCCCCCOC(=O)Cc1ccc([N+](C)(C)C)cc1.[I-] [Compound 988] | = | 2 |
| OC(Cn1cncn1)(Cn1cncn1)c1ccc(F)cc1F [Fluconazole] | = | 8 |
| COC(=O)c1cc2ccccc2[n+](C)c1-c1c[nH]c2ccccc12.[I-] [Compound 1500] | > | 32 |

----------
Tested on: Torulopsis glabrata JHC-BC9951635
Test Name: In vitro study of inhibition of growth and lethality against yeast (MIC/MLC susceptibility test), isolate E
Format: cell-based
Condition Context: Torulopsis glabrata, 2nd pair of lines, read at 24 hr; isolate assigned by line order
Recorded Minimum Inhibitory Conc. (MIC), 24 hr. values for a group of compounds are listed next.
Value Type: Minimum Inhibitory Conc. (MIC), 24 hr.

| Compound | Result |
| --- | --- |
| COC(=O)c1cc2cc(OCc3ccccc3)ccc2n1CCCCCCCOC(=O)Cc1ccc([N+](C)(C)C)cc1.[I-] | 2 µg/mL |
| COC(=O)c1cc2ccccc2[n+](C)c1-c1c[nH]c2ccccc12.[I-] | >32 µg/mL |
| C[n+]1cccc(C(=O)OCCCCCCCCn2ccc3cc(OCc4ccccc4)ccc32)c1 | 0.5 µg/mL |
| C[N+](C)(C)c1ccc(CC(=O)OCCCCCCCCOc2ccc(OCc3ccccc3)cc2)cc1.[I-] | 1 µg/mL |
| C[C@@H]1[C@H](O)[C@@H](C)/C=C/C=C/C=C/C=C/C=C/C=C/C=C/[C@H](O[C@@H]2O[C@H](C)[C@@H](O)[C@H](N)[C@@H]2O)C[C@@H]2O[C@](O)(C[C@@H](O)C[C@@H](O)[C@H](O)CC[C@@H](O)C[C@@H](O)CC(=O)O[C@H]1C)C[C@H](O)[C@H]2C(=O)O | 0.5 µg/mL |
| COC(=O)c1cc2cc(OCc3ccccc3)ccc2n1CCCCCCCCC[n+]1ccccc1 | 2 µg/mL |
| C[N+](C)(C)C(Cc1ccccc1)C(=O)OCCCCCCCCOc1ccc(OCc2ccccc2)cc1.[I-] (centres unmarked) | 2 µg/mL |
| Cc1[nH]c2ccccc2c1/C=C/C1=[N+](C)c2ccccc2C1(C)C.[Cl-] | >32 µg/mL |
